# System: Escherichia coli TOP10
# ASSAY TEXT: shrunken log2 fold change of peptide-encoding DNA abundance (4.5 h post-induction vs induction); higher = less antimicrobial activity (less host growth inhibition)
# RECORDED CONDITIONS: time post-induction: 4.5 h; library: site-saturation at positions 5, 18, 19, 20
I'd be grateful if you could share measured shrunken log2 fold change for these entries.
I'd appreciate a reply containing only the number, no unit.

Prompt: Quickly give me recorded shrunken log2 fold change for `RRIRDRPPRLPRPRPRPIVPPRP`
Completion: -0.142

Prompt: Quickly give me recorded shrunken log2 fold change for `RRIRWRPPRLPRPRPRPKALPRP`
Completion: 0.237

Prompt: Quickly give me recorded shrunken log2 fold change for `RRIRLRPPRLPRPRPRPLCYPRP`
Completion: -0.15

Prompt: Quickly give me recorded shrunken log2 fold change for `RRIRTRPPRLPRPRPRPANYPRP`
Completion: -0.145

Prompt: Quickly give me recorded shrunken log2 fold change for `RRIRKRPPRLPRPRPRPWHEPRP`
Completion: -0.0363

Prompt: Quickly give me recorded shrunken log2 fold change for `RRIRCRPPRLPRPRPRPKWMPRP`
Completion: 0.361

Prompt: Quickly give me recorded shrunken log2 fold change for `RRIRFRPPRLPRPRPRPRPSPRP`
Completion: 0.433

====

# Test system: Escherichia coli TOP10;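 note: peptides expressed intracellularly from a pBAD plasmid library in pooled LB shake-flask culture, induced with 0.3% L-arabinose, DNA abundance read by NGS, three biological replicates, DESeq2 with apeglm shrinkage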
# ASSAY TEXT: shrunken log2 fold change of peptide-encoding DNA abundance (4.5 h post-induction vs induction); higher = less antimicrobial activity (less host growth inhibition)
# RECORDED CONDITIONS: time post-induction: 4.5 h; library: site-saturation at positions 5, 18, 19, 20
PARAMETER MEASURED: shrunken log2 fold change
I'd appreciate a reply containing only the number, no unit.

Prompt: Quickly give me recorded shrunken log2 fold change for `RRIRWRPPRLPRPRPRPFDVPRP`
Completion: -0.00233

Prompt: Quickly give me recorded shrunken log2 fold change for `RRIRCRPPRLPRPRPRPRVIPRP`
Completion: 0.0854

Prompt: Quickly give me recorded shrunken log2 fold change for `RRIRSRPPRLPRPRPRPHWGPRP`
Completion: -0.107

Prompt: Quickly give me recorded shrunken log2 fold change for `RRIRTRPPRLPRPRPRPCTIPRP`
Completion: -0.456

Prompt: Quickly give me recorded shrunken log2 fold change for `RRIRHRPPRLPRPRPRPCCPPRP`
Completion: -0.243

Prompt: Quickly give me recorded shrunken log2 fold change for `RRIRFRPPRLPRPRPRPGYPPRP`
Completion: 0.0384

Prompt: Quickly give me recorded shrunken log2 fold change for `RRIRPRPPRLPRPRPRPKVHPRP`
Completion: -0.132

Prompt: Quickly give me recorded shrunken log2 fold change for `RRIRERPPRLPRPRPRPPLYPRP`
Completion: 0.127

Prompt: Quickly give me recorded shrunken log2 fold change for `RRIRLRPPRLPRPRPRPMHHPRP`
Completion: 0.0581

Prompt: Quickly give me recorded shrunken log2 fold change for `RRIRGRPPRLPRPRPRPQPHPRP`
Completion: 0.582

Prompt: Quickly give me recorded shrunken log2 fold change for `RRIRQRPPRLPRPRPRPGVKPRP`
Completion: 0.0204

Prompt: Quickly give me recorded shrunken log2 fold change for `RRIRKRPPRLPRPRPRPTMYPRP`
Completion: -0.0949

Prompt: Quickly give me recorded shrunken log2 fold change for `RRIRIRPPRLPRPRPRPWGYPRP`
Completion: -0.156

Prompt: Quickly give me recorded shrunken log2 fold change for `RRIRLRPPRLPRPRPRPWMMPRP`
Completion: 0.00744

Prompt: Quickly give me recorded shrunken log2 fold change for `RRIRERPPRLPRPRPRPMSEPRP`
Completion: 0.0552

Prompt: Quickly give me recorded shrunken log2 fold change for `RRIRHRPPRLPRPRPRPQASPRP`
Completion: 0.0479

Prompt: Quickly give me recorded shrunken log2 fold change for `RRIRARPPRLPRPRPRPIFIPRP`
Completion: 0.127

Prompt: Quickly give me recorded shrunken log2 fold change for `RRIRWRPPRLPRPRPRPGWGPRP`
Completion: 0.534

Prompt: Quickly give me recorded shrunken log2 fold change for `RRIRTRPPRLPRPRPRPPFCPRP`
Completion: 0.188

Prompt: Quickly give me recorded shrunken log2 fold change for `RRIRCRPPRLPRPRPRPGYHPRP`
Completion: -0.997

Prompt: Quickly give me recorded shrunken log2 fold change for `RRIRNRPPRLPRPRPRPIAPPRP`
Completion: 0.0153

Prompt: Quickly give me recorded shrunken log2 fold change for `RRIRTRPPRLPRPRPRPKPKPRP`
Completion: 0.349

Prompt: Quickly give me recorded shrunken log2 fold change for `RRIRQRPPRLPRPRPRPWRNPRP`
Completion: -0.00208

Prompt: Quickly give me recorded shrunken log2 fold change for `RRIRARPPRLPRPRPRPQFDPRP`
Completion: 0.545

Prompt: Quickly give me recorded shrunken log2 fold change for `RRIRVRPPRLPRPRPRPKPHPRP`
Completion: 0.264

Prompt: Quickly give me recorded shrunken log2 fold change for `RRIRNRPPRLPRPRPRPQNFPRP`
Completion: 0.0364

Prompt: Quickly give me recorded shrunken log2 fold change for `RRIRLRPPRLPRPRPRPGIFPRP`
Completion: -0.313

Prompt: Quickly give me recorded shrunken log2 fold change for `RRIRLRPPRLPRPRPRPLQKPRP`
Completion: 0.141

Prompt: Quickly give me recorded shrunken log2 fold change for `RRIRQRPPRLPRPRPRPPLKPRP`
Completion: -0.0174

Prompt: Quickly give me recorded shrunken log2 fold change for `RRIRRRPPRLPRPRPRPRCNPRP`
Completion: -0.223

Prompt: Quickly give me recorded shrunken log2 fold change for `RRIRPRPPRLPRPRPRPTRKPRP`
Completion: 0.483

Prompt: Quickly give me recorded shrunken log2 fold change for `RRIRRRPPRLPRPRPRPACGPRP`
Completion: 0.429

Prompt: Quickly give me recorded shrunken log2 fold change for `RRIRMRPPRLPRPRPRPDDAPRP`
Completion: 0.225

Prompt: Quickly give me recorded shrunken log2 fold change for `RRIRGRPPRLPRPRPRPLTCPRP`
Completion: 0.416

Prompt: Quickly give me recorded shrunken log2 fold change for `RRIRHRPPRLPRPRPRPPINPRP`
Completion: -0.294

Prompt: Quickly give me recorded shrunken log2 fold change for `RRIRCRPPRLPRPRPRPVDHPRP`
Completion: -0.148

Prompt: Quickly give me recorded shrunken log2 fold change for `RRIRDRPPRLPRPRPRPSMRPRP`
Completion: 0.334

Prompt: Quickly give me recorded shrunken log2 fold change for `RRIRKRPPRLPRPRPRPGSRPRP`
Completion: -0.171
